Target: human bradykinin 1 receptor (B1R) (Homo sapiens, UniProt P46663)
Construct: expressed in transfected cells; host or cells: CHO K1 cells
Sequence (P46663 whole entry): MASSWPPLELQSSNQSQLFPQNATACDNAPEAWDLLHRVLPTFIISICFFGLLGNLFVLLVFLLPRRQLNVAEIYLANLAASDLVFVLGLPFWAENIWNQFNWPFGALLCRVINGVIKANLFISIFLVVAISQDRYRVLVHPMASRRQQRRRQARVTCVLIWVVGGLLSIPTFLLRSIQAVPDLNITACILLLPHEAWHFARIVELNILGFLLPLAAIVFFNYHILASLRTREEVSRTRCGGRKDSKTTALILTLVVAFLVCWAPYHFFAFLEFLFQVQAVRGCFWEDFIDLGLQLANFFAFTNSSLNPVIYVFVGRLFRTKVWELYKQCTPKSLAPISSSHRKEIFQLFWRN
Test: Functional investigation on the human bradykinin 1 receptor (B1R), Ca2+ FLIPR assay in CHO K1 hB1R cells
Type: cell-based
Conditions: CHO-K1, B1R antagonism human; test substance 10 μM; % inhibition compared with the maximum achievable inhibition; read-out: B1R Ant. h [10 μM] % Inhibition
Listed here are compounds together with their documented inhibition at 10 µM.
observable: inhibition at 10 µM (%)

{"columns": ["compound", "test-system", "measurement"],
 "data": [
  ["COc1cc(C)c(S(=O)(=O)N(C)CCOCC(=O)N2CCC(C(c3ccccc3)N3CCN(C)CC3)CC2)c(C)c1 (stereo not drawn)", "human bradykinin 1 receptor (B1R) (Homo sapiens, UniProt P46663)", 110],
  ["COc1cc(C)c(S(=O)(=O)N2CCCCC2COCC(=O)N2CCC(C(c3ccccc3)N3CCN(C)CC3)CC2)c(C)c1 (stereo not drawn)", "human bradykinin 1 receptor (B1R) (Homo sapiens, UniProt P46663)", 105],
  ["COc1cc(C)c(S(=O)(=O)N(C)CCOCC(=O)N2CCC(C(Cc3ccccc3)N3CCN(C)CC3)CC2)c(C)c1 (stereo not drawn)", "human bradykinin 1 receptor (B1R) (Homo sapiens, UniProt P46663)", 108]
]}

---

Target: human μ opiate receptor (Homo sapiens, UniProt P35372)
Construct: purchased PerkinElmer Life Sciences, Zaventem, Belgium RB-HOM; host or cells: CHO-K1 cells (membrane preparation)
Sequence (P35372 whole entry): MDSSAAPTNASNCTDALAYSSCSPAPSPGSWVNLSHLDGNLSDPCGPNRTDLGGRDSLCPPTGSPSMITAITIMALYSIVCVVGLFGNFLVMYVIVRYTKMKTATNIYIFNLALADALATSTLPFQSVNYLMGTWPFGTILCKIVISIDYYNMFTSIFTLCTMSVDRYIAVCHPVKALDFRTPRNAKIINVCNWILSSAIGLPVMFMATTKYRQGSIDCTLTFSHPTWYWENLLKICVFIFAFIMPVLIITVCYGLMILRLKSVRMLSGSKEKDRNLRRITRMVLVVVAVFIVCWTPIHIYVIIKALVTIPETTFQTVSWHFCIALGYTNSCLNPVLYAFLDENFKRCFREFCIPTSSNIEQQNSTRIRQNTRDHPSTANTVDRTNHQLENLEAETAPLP
Assay: Affinity for the human μ opiate receptor ([3H]-naloxone displacement, CHO-K1 receptor membrane preparation, SPA)
Assay type: binding
Conditions: test concentration of 1 μM; read-out: μ (binding on the μ opioid receptor, % inhibition)
observable: inhibition at 1 µM (%)

{"columns": ["compound", "test-system", "measurement"],
 "data": [
  ["CN(C)C(c1cccc(F)c1)C1CCC(NC(=O)COC2CCN(S(=O)(=O)c3ccc(F)cc3)C2)CC1 (stereo not shown)", "human μ opiate receptor (Homo sapiens, UniProt P35372)", 78],
  ["CN(C)C(c1cccs1)C1CCC(CCNC(=O)COCCN(C)S(=O)(=O)c2cccc(C(F)(F)F)c2)CC1 (stereo not shown)", "human μ opiate receptor (Homo sapiens, UniProt P35372)", 97],
  ["COc1ccc(S(=O)(=O)N2CCC(OCC(=O)NC3CCC(C(c4cccs4)N(C)C)CC3)C2)cc1OC (stereo not shown)", "human μ opiate receptor (Homo sapiens, UniProt P35372)", 88],
  ["COc1ccc(S(=O)(=O)N2CCCCC2COCC(=O)NCCC2CCC(C(c3cccs3)N(C)C)CC2)cc1 (stereo not shown)", "human μ opiate receptor (Homo sapiens, UniProt P35372)", 97]
]}

---

Listed here are molecules together with their documented μ (binding on the μ opioid receptor, % inhibition).
Biological target: human μ opiate receptor (Homo sapiens, UniProt P35372)
Construct: purchased PerkinElmer Life Sciences, Zaventem, Belgium RB-HOM; host or cells: CHO-K1 cells (membrane preparation)
Assay: Affinity for the human μ opiate receptor ([3H]-naloxone displacement, CHO-K1 receptor membrane preparation, SPA)
Format: binding
Conditions: test concentration of 1 μM
observable: μ (binding on the μ opioid receptor, % inhibition) (%)

{"columns": ["molecule", "measurement"],
 "data": [
  ["COc1ccc(S(=O)(=O)N2CCC(OCC(=O)NCC3CCC(C(c4ccc(Cl)cc4)N(C)C)CC3)C2)cc1OC (stereo not shown) [Example 260]", 76],
  ["Cc1cc(C)c(S(=O)(=O)N(C)CCOCC(=O)NC2CCC(C(c3cccs3)N(C)C)CC2)c(C)c1 (stereo not shown) [Example 235]", 76],
  ["CN(C)C(c1ccc(Cl)cc1)C1CCC(CNC(=O)COCCC2CCN(S(=O)(=O)c3ccccc3)CC2)CC1 (stereo not shown) [Example 584]", 7],
  ["CN(C)C(c1cccc(F)c1)C1CCC(NC(=O)COC2CCN(S(=O)(=O)c3ccccc3)CC2)CC1 (stereo not shown) [Example 335]", 58],
  ["COc1ccc(S(=O)(=O)N(C)CCOCC(=O)NC2CCC(C(c3ccc(F)cc3)N(C)C)CC2)cc1 (stereo not shown) [Example 549]", 29],
  ["CN(C)C(c1ccc(Cl)cc1)C1CCC(CCNC(=O)COCCN(Cc2ccccc2)S(=O)(=O)c2ccccc2)CC1 (stereo not shown) [Example 426]", 48],
  ["COc1ccc(S(=O)(=O)N2CCC(OCC(=O)NC3CCC(C(c4ccc(F)cc4)N(C)C)CC3)C2)cc1OC (stereo not shown) [Example 512]", 42]
]}

---

Target: human μ opiate receptor (Homo sapiens, UniProt P35372)
Construct: purchased PerkinElmer Life Sciences, Zaventem, Belgium RB-HOM; host or cells: CHO-K1 cells (membrane preparation)
Assay: Affinity for the human μ opiate receptor ([3H]-naloxone displacement, CHO-K1 receptor membrane preparation, SPA)
Format: binding
Conditions: test concentration of 1 μM; read-out: μ (binding on the μ opioid receptor, % inhibition)
Listed here are compounds together with their documented inhibition at 1 µM.
observable: inhibition at 1 µM (%)

{"columns": ["compound", "observable", "unit-of-measurement", "measurement"],
 "data": [
  ["COc1cc(C)c(S(=O)(=O)N2CCCC(OCC(=O)NC3CCC(C(c4cccs4)N(C)C)CC3)C2)c(C)c1C (centres unmarked)", "inhibition at 1 µM", "%", 89],
  ["CCN(CCOCC(=O)NC1CCC(C(c2cccc(F)c2)N(C)C)CC1)S(=O)(=O)c1c(C)cc(OC)c(C)c1C (centres unmarked)", "inhibition at 1 µM", "%", 87],
  ["CN(C)C(c1ccccc1)C1CCC(CNC(=O)COC2CCN(S(=O)(=O)c3cccc(C(F)(F)F)c3)C2)CC1 (centres unmarked)", "inhibition at 1 µM", "%", 90],
  ["COc1ccc(S(=O)(=O)N2CCCCC2CCOCC(=O)NCC2CCC(C(c3ccccc3)N(C)C)CC2)cc1 (centres unmarked)", "inhibition at 1 µM", "%", 93],
  ["CN(C)C(c1cccs1)C1CCC(NC(=O)COCCN(C)S(=O)(=O)c2cccc(C(F)(F)F)c2)CC1 (centres unmarked)", "inhibition at 1 µM", "%", 89],
  ["CN(C)C(c1cccc(F)c1)C1CCC(CNC(=O)COCCN(C)S(=O)(=O)c2c(Cl)cc(Cl)cc2Cl)CC1 (centres unmarked)", "inhibition at 1 µM", "%", 87],
  ["COc1cc(C)c(S(=O)(=O)N2CCCC(OCC(=O)NCC3CCC(C(c4cccs4)N(C)C)CC3)C2)c(C)c1C (centres unmarked)", "inhibition at 1 µM", "%", 95],
  ["COc1cc(C)c(S(=O)(=O)N(CCOCC(=O)NCCC2CCC(C(c3cccs3)N(C)C)CC2)Cc2ccccc2)c(C)c1 (centres unmarked)", "inhibition at 1 µM", "%", 91],
  ["COc1ccc(S(=O)(=O)N2CCCCC2COCC(=O)NCC2CCC(C(c3ccccc3)N(C)C)CC2)cc1 (centres unmarked)", "inhibition at 1 µM", "%", 94],
  ["COc1cc(C)c(S(=O)(=O)N(C)CCOCC(=O)NCCC2CCC(C(c3cccs3)N(C)C)CC2)c(C)c1 (centres unmarked)", "inhibition at 1 µM", "%", 95],
  ["CN(C)C(c1cccs1)C1CCC(CNC(=O)COC2CCCCC2N(C)S(=O)(=O)c2ccc(Cl)c(Cl)c2)CC1 (centres unmarked)", "inhibition at 1 µM", "%", 97],
  ["COc1ccc(S(=O)(=O)N2CCCCC2COCC(=O)NCC2CCC(C(c3cccc(F)c3)N(C)C)CC2)cc1 (centres unmarked)", "inhibition at 1 µM", "%", 85],
  ["COc1cc(C)c(S(=O)(=O)N(C)CCOCC(=O)NC2CCC(C(c3cccs3)N(C)C)CC2)c(C)c1 (centres unmarked)", "inhibition at 1 µM", "%", 92],
  ["CN(C)C(c1cccs1)C1CCC(CCNC(=O)COCCN(Cc2ccccc2)S(=O)(=O)c2ccccc2)CC1 (centres unmarked)", "inhibition at 1 µM", "%", 91]
]}

---

Molecular target: human μ opiate receptor (Homo sapiens, UniProt P35372)
Construct: purchased PerkinElmer Life Sciences, Zaventem, Belgium RB-HOM; host or cells: CHO-K1 cells (membrane preparation)
Test: Affinity for the human μ opiate receptor ([3H]-naloxone displacement, CHO-K1 receptor membrane preparation, SPA)
Assay type: binding
Conditions: 1.5 h, Table 3, to be read in the same way as Table 1; test concentration 1 μM; read-out: μ

{"columns": ["compound", "inhibition at 1 µM, %"],
 "data": [
  ["O=C(COCC1CCCN(S(=O)(=O)c2c(Cl)cc(Cl)cc2Cl)C1)NC1CCC(C(CCc2ccccc2)N2CCOCC2)CC1 (stereo not shown)", 16],
  ["CN(CCOCC(=O)NCC1CCC(C(CCc2ccccc2)N2CCOCC2)CC1)S(=O)(=O)c1c(Cl)cc(C(F)(F)F)cc1Cl (stereo not shown)", 12],
  ["O=C(COCC1CCCN1S(=O)(=O)c1c(Cl)cc(Cl)cc1Cl)NC1CCC(C(CCc2ccccc2)N2CCCCC2)CC1 (stereo not shown)", 76],
  ["COc1cc(C)c(S(=O)(=O)N2CCC(OCC(=O)NC3CCC(C(c4ccccc4)N4CCN(C)CC4)CC3)C2)c(C)c1 (stereo not shown)", 20],
  ["COc1cc(C)c(S(=O)(=O)N2CCCC2COCC(=O)NCC2CCC(C(CCc3ccccc3)N3CCOCC3)CC2)c(C)c1 (stereo not shown)", 12],
  ["COc1cc(C)c(S(=O)(=O)N2CCC(OCC(=O)NCC3CCC(C(c4ccccc4)N4CCCC4)CC3)C2)c(C)c1 (stereo not shown)", 38],
  ["O=C(COCC1CCCCN1S(=O)(=O)c1c(Cl)cc(Cl)cc1Cl)NC1CCC(C(c2ccccc2)N2CCOCC2)CC1 (stereo not shown)", 27]
]}

FYI, the data here is from patent US8106055B2.
